The following compounds are listed with their measured log10(MIC) values.
assay: Minimum inhibitory concentration against SCN (GC 4548) was determined; assay type: functional
# log10 transformed; quantity=MIC; unit=µg/mL

Please review the entries below; each comes with its answer.
CN[C@H](CC(C)C)C(=O)N[C@H]1C(=O)N[C@@H](CC(N)=O)C(=O)N[C@H]2C(=O)N[C@H]3C(=O)N[C@H](C(=O)N[C@H](C(=O)O)c4cc(O)cc(O)c4-c4cc3ccc4O)[C@H](O)c3ccc(c(Cl)c3)Oc3cc2cc(c3O[C@@H]2O[C@H](CO)[C@@H](O)[C@H](O)[C@H]2O[C@H]2C[C@](C)(N)[C@H](O)[C@H](C)O2)Oc2ccc(cc2Cl)[C@H]1O	0.30
COc1ccc2cc(CO[C@H]3[C@H](O)[C@H](O)[C@@H](O[C@H]4[C@H](O)[C@H](O)[C@@H](Oc5ccc(C[C@H]6NC(=O)[C@H]([C@@H](C)c7ccccc7)NC(=O)CNC(=O)[C@H](CO)NC(=O)[C@@H]([C@@H](O)[C@@H]7CN=C(N)N7[C@H]7O[C@H](O)[C@@H](O)[C@H](O)[C@@H]7O)NC(=O)[C@H]([C@@H](O)[C@@H]7CN=C(N)N7)NC6=O)cc5)O[C@@H]4CO)O[C@@H]3CO)ccc2c1	-0.92
COc1ccc2cc(CO[C@@H]3[C@@H](O[C@H]4[C@H](O)[C@H](O)[C@@H](Oc5ccc(C[C@H]6NC(=O)[C@H]([C@@H](C)c7ccccc7)NC(=O)CNC(=O)[C@H](CO)NC(=O)[C@@H]([C@@H](O)[C@@H]7CN=C(N)N7[C@H]7O[C@H](O)[C@@H](O)[C@H](O)[C@@H]7O)NC(=O)[C@H]([C@@H](O)[C@@H]7CN=C(N)N7)NC6=O)cc5)O[C@@H]4CO)O[C@H](CO)[C@@H](O)[C@@H]3O)ccc2c1	1.81
COc1ccc2cc(COC[C@H]3O[C@H](O[C@H]4[C@H](O)[C@H](O)[C@@H](Oc5ccc(C[C@H]6NC(=O)[C@H]([C@@H](C)c7ccccc7)NC(=O)CNC(=O)[C@H](CO)NC(=O)[C@@H]([C@@H](O)[C@@H]7CN=C(N)N7[C@H]7O[C@H](O)[C@@H](O)[C@H](O)[C@@H]7O)NC(=O)[C@H]([C@@H](O)[C@@H]7CN=C(N)N7)NC6=O)cc5)O[C@@H]4CO)[C@@H](O)[C@@H](O)[C@@H]3O)ccc2c1	-0.30

API: the following record is the query input.
## Task Recall and state the measured log10(MIC) for COc1ccc2cc(CO[C@H]3[C@H](O)[C@@H](CO)OC(O[C@H]4[C@H](O)[C@H](O)[C@@H](Oc5ccc(C[C@H]6NC(=O)[C@H]([C@@H](C)c7ccccc7)NC(=O)CNC(=O)[C@H](CO)NC(=O)[C@@H]([C@@H](O)[C@@H]7CN=C(N)N7[C@H]7O[C@H](O)[C@@H](O)[C@H](O)[C@@H]7O)NC(=O)[C@H]([C@@H](O)[C@@H]7CN=C(N)N7)NC6=O)cc5)O[C@@H]4CO)[C@H]3O)ccc2c1 (stereo not given in full) .
## Result 0.00
